B1: 6YSE (parent)
chain: HERALMVNRLQKLTRMLRVHPDPKWKQEQQELIKRLK

- Variants of: B1
- assay_remarks: folding stability dG (cDNA display proteolysis); higher = more stable
- condition_details: PBS, room temperature
Would you please tag the item Y when its folding stability dG is 1 kcal/mol or above, and N when it is below?

Worked cases, answers included:
>>> group_label("W25H")
"N"
>>> group_label("E2F")
"Y"
>>> group_label("R35N")
"N"
>>> group_label("R9W")
"N"
>>> group_label("L32I")
"N"
>>> group_label("E28Y")
"N"

## Input Does the variant `K37N` have recorded folding stability dG that is 1 kcal/mol or more?
## Output Y

## Input Check if folding stability dG >= 1 kcal/mol (inclusive). Item: `L5N`
## Output Y

## Input Determine whether this variant has folding stability dG no lower than 1 kcal/mol: `R9T`
## Output N

## Input Is reported folding stability dG greater than or equal to 1 kcal/mol here: `Q29L`
## Output Y

Data origin, for the record: the MegaScale stability set (Tsuboyama et al. 2023)
